System: Staphylococcus aureus
Assay: Antimicrobial activity against CA-methicillin-resistant Staphylococcus aureus W48 ST217 incubated for 20 hrs by microdilution method
Conditions: W48 ST217, 20 h
Measured MIC, listed per entry.
The response must be a number in µg/mL with no trailing unit.

Here is how some compounds turned out for MIC.
1) Cc1onc(-c2ccccc2)c1C(=O)N[C@@H]1C(=O)N2[C@@H]1SC(C)(C)[C@@H]2C(=O)O [OXACILLIN]	64
2) O=[N+]([O-])c1ccc(O)c(CNc2cccc(Cl)c2)c1	8
3) CC(C)(C)c1cccc(NCc2cc([N+](=O)[O-])ccc2O)c1	4

// next item, MIC requested
# input compound: CC(C)(C)c1ccc(NCc2cc([N+](=O)[O-])ccc2O)cc1 ; wanted: its MIC
8

----------
Assay: Apparent permeability across apical to basolateral side in human Caco2 cells by LC-MS/MS analysis
Format: ADME, cell-based
Settings: Caco-2
METRIC_NAME: Papp A→B (×10⁻⁶ cm/s)
# number only, unit ×10⁻⁶ cm/s dropped from output

1) O=[N+]([O-])c1ccc(O)c(CNc2cccc(Cl)c2)c1	14.9

Continue with the compound presented below.
I'd like to know its Papp A→B. The compound in question is O=[N+]([O-])c1ccc(O)c(CNc2ccccc2Cl)c1
16.1

----------
System: Bacillus subtilis
Assay: Inhibition of N-terminal LgBiT-fused Bacillus subtilis NusB expressed in Escherichia coli BL21(DE3)pLysS interaction with C- terminal SmBiT-fused Bacillus subtilis NusE expressed in Escherichia coli BL21(DE3)pLysS at 100 uM preincubated for 10 mins followed by NusE addition and measured after 10 mins by nano-glo luciferase assay relative to control
Class criterion met: inhibition at least 60%. Class criterion not met: inhibition below 60%.

1) C#Cc1cccc(/N=C/c2cc([N+](=O)[O-])ccc2O)c1	criterion met

Could you please find out whether C#Cc1cccc(NCc2cc([N+](=O)[O-])cc(Br)c2O)c1 has inhibition that meets 60% or exceeds it?
criterion met

Does C#Cc1cccc(NCc2cc([N+](=O)[O-])ccc2OC)c1 have a reported inhibition of at least 60%?
criterion not met

Assess whether reported inhibition for C#Cc1cccc(/N=C/c2cc([N+](=O)[O-])cc(Br)c2O)c1 sits at 60% or higher.
criterion met

Check if inhibition >= 60% (inclusive). Item: O=[N+]([O-])c1ccc(O)c(/C=N/c2ccccc2Cl)c1
criterion not met

----------
Test: Therapeutic index, ratio of CC50 for human A549 cells to 1/2 times MIC for Staphylococcus aureus ATCC 25923
Type: toxicity
Details: read-out: TI
# label = Yes if selectivity ratio >= 8 else No

Could you tell me if the measured selectivity ratio of C#Cc1cccc(NCc2cc(Cl)cc(Cl)c2O)c1 reaches 8 or more?
Yes

----------
Tested on: Bacillus subtilis
Assay: Inhibition of N-terminal LgBiT-fused Bacillus subtilis NusB expressed in Escherichia coli BL21(DE3)pLysS interaction with C- terminal SmBiT-fused Bacillus subtilis NusE expressed in Escherichia coli BL21(DE3)pLysS at 100 uM preincubated for 10 mins followed by NusE addition and measured after 10 mins by nano-glo luciferase assay relative to control
METRIC_NAME: inhibition (%)
Report as a plain number; the unit % is understood.

1. O=[N+]([O-])c1ccc(O)c(/C=N/c2cccc(C(F)(F)F)c2)c1	56.2

Pending molecule:
Entry CC(C)(C)c1cccc(/N=C/c2cc([N+](=O)[O-])ccc2O)c1 has what inhibition?
51.3
